Molecular target: SMARCA4 (Homo sapiens, UniProt P51532)
Construct: endogenous in cells
Sequence (P51532 whole entry, species assumed): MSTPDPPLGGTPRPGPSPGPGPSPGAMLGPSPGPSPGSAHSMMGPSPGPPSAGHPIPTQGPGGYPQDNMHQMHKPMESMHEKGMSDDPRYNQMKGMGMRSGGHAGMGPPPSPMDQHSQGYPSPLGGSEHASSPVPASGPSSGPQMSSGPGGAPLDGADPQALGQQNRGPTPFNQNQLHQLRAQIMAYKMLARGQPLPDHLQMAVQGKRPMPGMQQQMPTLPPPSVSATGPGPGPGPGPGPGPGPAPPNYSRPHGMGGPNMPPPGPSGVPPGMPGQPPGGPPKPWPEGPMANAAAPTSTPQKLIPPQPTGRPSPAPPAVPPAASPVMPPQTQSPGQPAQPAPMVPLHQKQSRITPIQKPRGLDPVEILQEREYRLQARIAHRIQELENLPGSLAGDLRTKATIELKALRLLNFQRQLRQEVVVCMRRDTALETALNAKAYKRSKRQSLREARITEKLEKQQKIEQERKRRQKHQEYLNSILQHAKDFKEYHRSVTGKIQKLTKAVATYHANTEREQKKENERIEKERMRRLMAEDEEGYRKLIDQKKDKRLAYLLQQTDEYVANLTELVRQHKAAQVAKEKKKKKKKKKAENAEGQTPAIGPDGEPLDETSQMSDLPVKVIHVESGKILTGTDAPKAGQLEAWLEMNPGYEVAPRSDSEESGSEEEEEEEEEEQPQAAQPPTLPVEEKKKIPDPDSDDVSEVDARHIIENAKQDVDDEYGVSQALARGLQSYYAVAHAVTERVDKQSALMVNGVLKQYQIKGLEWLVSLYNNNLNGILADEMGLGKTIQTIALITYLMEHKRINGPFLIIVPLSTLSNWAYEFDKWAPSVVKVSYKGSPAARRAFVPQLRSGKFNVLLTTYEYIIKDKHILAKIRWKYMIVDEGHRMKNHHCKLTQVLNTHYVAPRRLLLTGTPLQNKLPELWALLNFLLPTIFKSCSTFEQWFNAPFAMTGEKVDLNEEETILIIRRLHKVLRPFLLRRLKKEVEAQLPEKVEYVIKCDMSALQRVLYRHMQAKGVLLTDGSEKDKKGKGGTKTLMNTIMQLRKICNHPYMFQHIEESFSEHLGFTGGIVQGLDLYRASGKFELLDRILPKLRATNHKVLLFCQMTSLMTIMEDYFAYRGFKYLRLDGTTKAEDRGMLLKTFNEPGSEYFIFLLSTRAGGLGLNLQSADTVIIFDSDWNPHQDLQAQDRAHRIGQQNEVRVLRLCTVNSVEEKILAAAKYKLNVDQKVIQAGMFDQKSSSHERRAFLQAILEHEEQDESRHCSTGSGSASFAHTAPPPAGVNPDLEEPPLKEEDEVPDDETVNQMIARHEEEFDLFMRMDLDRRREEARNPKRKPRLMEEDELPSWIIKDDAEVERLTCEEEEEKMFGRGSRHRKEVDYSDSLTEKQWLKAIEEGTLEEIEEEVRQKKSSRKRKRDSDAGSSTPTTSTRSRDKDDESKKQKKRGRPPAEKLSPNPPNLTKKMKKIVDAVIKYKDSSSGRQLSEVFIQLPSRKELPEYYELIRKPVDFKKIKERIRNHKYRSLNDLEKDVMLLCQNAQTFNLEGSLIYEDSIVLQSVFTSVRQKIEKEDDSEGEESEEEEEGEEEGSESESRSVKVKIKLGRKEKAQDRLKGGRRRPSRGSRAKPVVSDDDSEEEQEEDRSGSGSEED
Test: Cellular degradation assay, SMARCA4 (Table 1)
Type: cell-based
Mark each entry t if its DC50 sits below 200 nM, and f for all others.

Is DC50 strictly under 200 nM for the entry CCN(C(=O)C1(c2ccccc2)CCN(c2cnnc(-c3ccccc3O)c2)CC1)C1CCN(CCC2CCN(c3ccc([C@H]4CCC(=O)NC4=O)cc3)CC2)CC1 [Example 187] ?
t

Just wondering, is DC50 of O=C1CCC(c2ccc(N3CC[C@H](CCN4CC5(C4)CN(C(=O)C4(c6ccccc6)CCN(c6cnnc(-c7ccccc7O)c6)CC4)C5)C3)nc2)C(=O)N1 (mixture of isomers) [Example 181] below 200 nM?
f

Regarding Cn1c(=O)n(C2CCC(=O)NC2=O)c2ccc(N3CCC(CN4CCC(NC(=O)C5(c6ccccc6)CCN(c6cnnc(-c7ccccc7O)c6)CC5)CC4)CC3)cc21 (racemic) [Example 158] , kindly confirm whether its DC50 is beneath 200 nM.
t

Is it true that DC50 reported for CN(C(=O)C1(c2ccccc2)CCN(c2cnnc(-c3ccccc3O)c2)CC1)C1CCN(CC2CCN(c3ccc([C@H]4CCC(=O)NC4=O)cc3)CC2)C2(CCCCC2)C1 (mixture of isomers) [Example 153] is less than 200 nM?
t

Answer whether the compound CN(C(=O)C1(c2ccnn2C)CCN(c2cnnc(-c3ccccc3O)c2)CC1)C1CCN(CCC2CCN(c3cccc4c3n(C)c(=O)n4C3CCC(=O)NC3=O)CC2)CC1 (racemic) [Example 62] has DC50 strictly less than 200 nM
t

Quick check: DC50 of O=C1CCC(c2ccc(N3CCC(F)(CN4CC5(C4)CN(C(=O)C4(c6ccccc6)CCN(c6cnnc(-c7ccccc7O)c6)CC4)C5)CC3)nc2)C(=O)N1 (racemic) [Example 19] under 200 nM?
t

Dear colleague, could you confirm whether DC50 of O=C1CC[C@H](c2ccc(N3CCC(CN4CCC5(C4)CN(C(=O)C4(c6ccccc6)CCN(c6cnnc(-c7ccccc7O)c6)CC4)C5)CC3)cc2)C(=O)N1 [Example 17] falls below 200 nM? Thanks.
f

Strictly below 200 nM: is that where DC50 of O=C1CCC(c2ccc(C3CCN(CC(=O)N4CC5(C4)CN(C(=O)C4(Oc6ccccc6Cl)CCN(c6cnnc(-c7ccccc7O)c6)CC4)C5)CC3)cc2)C(=O)N1 (racemic) [Example 113] sits?
t

Threshold test, DC50 < 200 nM: CN(CC1(c2ccccc2)CCN(c2cnnc(-c3ccccc3O)c2)CC1)C1CCN(C(=O)C2CCN(c3ccc(C4CCC(=O)NC4=O)cc3)CC2)CC1 (racemic) [Example 142]
t

Please indicate whether the reported DC50 of CN(C(=O)C1(c2cc3ccccn3n2)CCN(c2cnnc(-c3ccccc3O)c2)CC1)C1CCN(CC2CCN(c3ccc(C4CCC(=O)NC4=O)cc3)CC2)CC1 (racemic) [Example 97] is strictly below 200 nM.
t

Quick check: DC50 of Cc1ccccc1C1(C(=O)N2CC3(CN(CC4CCN(c5ccc(C6CCC(=O)NC6=O)cc5)CC4)C3)C2)CCN(c2cnnc(-c3ccccc3O)c2)CC1 (racemic) [Example 33] under 200 nM?
t

Is the reported DC50 for CN(C(=O)C1(c2ccccc2)CCN(c2cnnc(-c3ccccc3O)c2)CC1)C1CCN(CC2CCN(c3cccc([C@@H]4CCC(=O)NC4=O)c3)CC2)CC1 (racemic) [Example 102] strictly below 200 nM?
f

Please check: DC50 for CCN(C(=O)C1(c2ccccc2)CCN(c2cnnc(-c3ccccc3O)c2)CC1)C1CCN(CC2CCN(c3ccc([C@H]4CCC(=O)NC4=O)cc3)CC2)CC1 [Example 184] , strictly under 200 nM or not?
t

Does this compound meet the criterion DC50 < 200 nM? COC1(C(=O)N(C)C2CCN(CCC3CCN(c4cccc5c4n(C)c(=O)n5C4CCC(=O)NC4=O)CC3)CC2)CCN(c2cnnc(-c3ccccc3O)c2)CC1 (racemic) [Example 68]
t

is_below(DC50, 200 nM) for O=C1CCC(c2ccc(N3CCC(F)(CN4CCC(NC(=O)C5(c6ccccc6)CCN(c6cnnc(-c7ccccc7O)c6)CC5)CC4)CC3)cc2)C(=O)N1 (racemic) [Example 179] ?
f

Problem: For the compound O=C1CC[C@@H](c2cccc(N3CCC(CN4CCC5(CC4)CN(C(=O)C4(c6ccccc6)CCN(c6cnnc(-c7ccccc7O)c6)CC4)C5)CC3)c2)C(=O)N1 (racemic) [Example 101] , is DC50 under 200 nM?
t

Hello, I'm reviewing records and need to know if DC50 of O=C1CCC(Nc2ccc(C3CCN(CC4CCC45CN(C(=O)C4(c6ccccc6)CCN(c6cnnc(-c7ccccc7O)c6)CC4)C5)CC3)cc2)C(=O)N1 (racemic) [Example 177] is below 200 nM. Could you check?
t

Record CN(C(=O)C1(Oc2ccn(C)n2)CCN(c2cnnc(-c3ccccc3O)c2)CC1)C1CCN(C(=O)CN2CCC(c3ccc([C@@H]4CCC(=O)NC4=O)cc3)CC2)CC1 (racemic) [Example 110] : is its DC50 strictly below 200 nM?
f

Is it true that DC50 reported for O=C1CCC(c2ccc(N3CCC(CN4CC5(C4)CN(C(=O)C4(c6ccccc6)CCN(c6cnnc(-c7ccccc7O)c6)CC4)C5)CC3)c(F)c2F)C(=O)N1 (racemic) [Example 138] is less than 200 nM?
t

Given the entry Cc1ccnn1C1(C(=O)N(C)C2CCN(CC3CCN(c4ccc(C5CCC(=O)NC5=O)cc4)CC3)CC2)CCN(c2cnnc(-c3ccccc3O)c2)CC1 (racemic) [Example 96] , would its reported DC50 be below 200 nM?
t

Hello, I'm reviewing records and need to know if DC50 of O=C1CCC(Nc2ccc(C3CCN(CC(=O)N4CCC5(CC4)CN(C(=O)C4(c6ccccc6)CCN(c6cnnc(-c7ccccc7O)c6)CC4)C5)CC3)cc2)C(=O)N1 (racemic) [Example 108] is below 200 nM. Could you check?
t
